target: p300 (Homo sapiens, UniProt Q09472); construct: in vitro acetylation assays with purified histones and a recombinant p300 catalytic domain; purchased Enzo Life Sciences; experiment: p300 inhibition by direct microfluidic mobility shift analysis, H4(3–14) peptide; format: biochemical; settings: microfluidic mobility shift, H4(3–14) peptide, 5 μM acetyl-CoA
Sequence (Q09472 1287-1663 limits assumed): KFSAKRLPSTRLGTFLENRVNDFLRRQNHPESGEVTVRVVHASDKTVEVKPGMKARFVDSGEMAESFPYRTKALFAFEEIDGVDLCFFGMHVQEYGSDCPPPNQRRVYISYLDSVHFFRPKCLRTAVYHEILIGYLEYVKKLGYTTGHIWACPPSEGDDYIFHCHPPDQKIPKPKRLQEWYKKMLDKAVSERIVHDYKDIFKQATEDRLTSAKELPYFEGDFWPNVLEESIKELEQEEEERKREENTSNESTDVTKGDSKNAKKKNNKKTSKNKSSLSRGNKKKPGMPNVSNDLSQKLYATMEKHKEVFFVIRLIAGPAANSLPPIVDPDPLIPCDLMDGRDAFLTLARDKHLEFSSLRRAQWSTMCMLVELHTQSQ
reported.property: IC50 (µM)
Lab book: enter the figure in µM, no units written.

Below: 2 compounds and their reported IC50.
{"compound": "O=C(O)c1ccccc1O [salicylate, salicylic acid]", "assayed.system": "p300 (Homo sapiens, UniProt Q09472)", "IC50 [µM]": 6120}
{"compound": "CC(C)(COP(=O)(O)OP(=O)(O)OC[C@H]1O[C@@H](n2cnc3c(N)ncnc32)[C@H](O)[C@@H]1OP(=O)(O)O)[C@@H](O)C(=O)NCCC(=O)NCCSC(=O)c1ccccc1O", "assayed.system": "p300 (Homo sapiens, UniProt Q09472)", "IC50 [µM]": 220}

[ask] IC50 lookup needed for CC(C)(COP(=O)(O)OP(=O)(O)OCC1OC(n2cnc3c(N)ncnc32)C(O)C1OP(=O)(O)O)C(O)C(=O)NCCC(=O)NCCSC(=O)c1cc(-c2ccc(F)cc2F)ccc1O (stereo not shown) , thanks.
[reply] 20

[ask] IC50 lookup needed for O=C(O)c1cc(-c2ccc(F)cc2F)ccc1O , thanks.
[reply] 1050

###

biological target: CBP (Homo sapiens, UniProt Q92793); test: In vitro HAT assay with recombinant CBP, histones and 14C acetyl-CoA; details: read-out: IC50, CBP-mediated acetyltransferase activity
Sequence (Q92793 whole entry): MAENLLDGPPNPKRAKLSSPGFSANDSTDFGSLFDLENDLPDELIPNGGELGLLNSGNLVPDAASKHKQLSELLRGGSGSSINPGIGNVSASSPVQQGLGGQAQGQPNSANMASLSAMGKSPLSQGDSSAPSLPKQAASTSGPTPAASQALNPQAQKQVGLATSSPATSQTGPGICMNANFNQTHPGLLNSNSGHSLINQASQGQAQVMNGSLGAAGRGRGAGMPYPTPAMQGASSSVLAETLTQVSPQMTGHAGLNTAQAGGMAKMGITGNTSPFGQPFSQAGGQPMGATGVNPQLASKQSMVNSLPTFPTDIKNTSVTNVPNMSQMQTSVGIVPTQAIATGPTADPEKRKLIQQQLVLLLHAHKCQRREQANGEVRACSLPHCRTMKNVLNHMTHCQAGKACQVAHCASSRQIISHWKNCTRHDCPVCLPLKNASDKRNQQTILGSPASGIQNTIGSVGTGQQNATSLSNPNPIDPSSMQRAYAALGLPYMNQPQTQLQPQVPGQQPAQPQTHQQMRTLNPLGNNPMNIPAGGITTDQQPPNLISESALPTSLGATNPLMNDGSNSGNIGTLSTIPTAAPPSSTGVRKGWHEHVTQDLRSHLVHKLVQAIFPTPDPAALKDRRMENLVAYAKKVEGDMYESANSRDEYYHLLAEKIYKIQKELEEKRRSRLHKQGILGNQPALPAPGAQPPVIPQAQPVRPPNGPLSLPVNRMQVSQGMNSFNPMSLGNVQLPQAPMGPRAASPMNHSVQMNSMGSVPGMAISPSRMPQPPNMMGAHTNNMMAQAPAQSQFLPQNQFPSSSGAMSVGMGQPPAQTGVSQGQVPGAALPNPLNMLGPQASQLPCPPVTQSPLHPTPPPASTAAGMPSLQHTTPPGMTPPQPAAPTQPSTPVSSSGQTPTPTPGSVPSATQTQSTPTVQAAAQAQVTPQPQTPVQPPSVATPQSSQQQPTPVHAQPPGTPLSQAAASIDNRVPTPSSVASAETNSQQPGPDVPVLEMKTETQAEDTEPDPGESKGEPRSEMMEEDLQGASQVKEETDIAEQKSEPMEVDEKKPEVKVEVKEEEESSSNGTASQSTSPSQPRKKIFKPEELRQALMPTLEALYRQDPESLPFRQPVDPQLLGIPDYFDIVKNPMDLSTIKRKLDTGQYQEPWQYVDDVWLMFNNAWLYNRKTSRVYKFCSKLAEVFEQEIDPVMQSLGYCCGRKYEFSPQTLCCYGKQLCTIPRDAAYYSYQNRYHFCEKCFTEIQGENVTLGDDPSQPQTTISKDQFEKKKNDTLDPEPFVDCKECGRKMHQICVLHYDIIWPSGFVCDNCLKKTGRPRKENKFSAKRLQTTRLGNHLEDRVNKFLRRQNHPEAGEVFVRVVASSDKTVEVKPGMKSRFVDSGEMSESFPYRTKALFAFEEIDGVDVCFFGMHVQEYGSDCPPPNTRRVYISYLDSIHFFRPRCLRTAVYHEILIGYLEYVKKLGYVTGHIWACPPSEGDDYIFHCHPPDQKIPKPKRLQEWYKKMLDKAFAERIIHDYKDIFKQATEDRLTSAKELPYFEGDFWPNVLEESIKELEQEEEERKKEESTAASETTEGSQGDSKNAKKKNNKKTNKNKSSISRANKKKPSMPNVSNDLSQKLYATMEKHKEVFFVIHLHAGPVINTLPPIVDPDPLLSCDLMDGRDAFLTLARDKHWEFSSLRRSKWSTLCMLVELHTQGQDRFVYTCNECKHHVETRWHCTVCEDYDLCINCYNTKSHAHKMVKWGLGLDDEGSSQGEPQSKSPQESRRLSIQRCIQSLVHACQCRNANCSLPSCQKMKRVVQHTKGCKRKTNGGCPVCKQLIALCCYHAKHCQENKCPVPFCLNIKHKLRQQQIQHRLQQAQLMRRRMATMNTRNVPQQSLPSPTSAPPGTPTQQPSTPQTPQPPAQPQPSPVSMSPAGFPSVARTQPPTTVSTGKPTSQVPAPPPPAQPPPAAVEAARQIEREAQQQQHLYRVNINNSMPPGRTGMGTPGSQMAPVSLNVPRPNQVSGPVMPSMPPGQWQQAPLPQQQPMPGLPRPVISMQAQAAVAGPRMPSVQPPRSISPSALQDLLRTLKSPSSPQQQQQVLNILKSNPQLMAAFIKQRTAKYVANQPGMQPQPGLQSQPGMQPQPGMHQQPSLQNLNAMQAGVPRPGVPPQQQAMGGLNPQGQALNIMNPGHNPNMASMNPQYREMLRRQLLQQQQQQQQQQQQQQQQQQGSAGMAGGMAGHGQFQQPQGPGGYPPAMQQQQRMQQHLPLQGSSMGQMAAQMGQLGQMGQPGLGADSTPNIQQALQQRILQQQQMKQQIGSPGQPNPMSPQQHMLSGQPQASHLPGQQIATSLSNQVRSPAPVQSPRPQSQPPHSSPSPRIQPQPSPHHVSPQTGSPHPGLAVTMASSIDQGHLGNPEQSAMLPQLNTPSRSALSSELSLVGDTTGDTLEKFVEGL
reported.property: IC50 (mM)
Lab book: enter the figure in mM, no units written.

[ask] IC50 lookup needed for O=C(O)c1ccccc1O [salicylate, salicylic acid] , thanks.
[reply] 5.7

###

List of IC50 values.
target: p300 (Homo sapiens, UniProt Q09472); construct: in vitro acetylation assays with purified histones and a recombinant p300 catalytic domain; purchased Enzo Life Sciences; experiment: In vitro HAT assay with recombinant p300, histones and 14C acetyl-CoA; assay type: biochemical; conditions: in vitro HAT assay, recombinant p300 and histones; read-out: IC50, p300 acetyltransferase activity
Lab book: enter the figure in mM, no units written.

Below: 5 compounds and their reported IC50.
{"compound": "CCOc1cc(CC(=O)N[C@@H](CC(C)C)c2ccccc2N2CCCCC2)ccc1C(=O)O [repaglinide]", "reported.property": "IC50", "readout.value": 0.374}
{"compound": "CC(=O)Oc1ccccc1C(=O)O", "reported.property": "IC50", "readout.value": 14.2}
{"compound": "COc1c(C)c2c(c(O)c1C/C=C(\\C)CCC(=O)O)C(=O)OC2", "reported.property": "IC50", "readout.value": 0.664}
{"compound": "O=C(O)c1ccccc1O [salicylate, salicylic acid]", "reported.property": "IC50", "readout.value": 10.2}
{"compound": "O=C(O)c1cc(-c2ccc(F)cc2F)ccc1O", "reported.property": "IC50", "readout.value": 0.996}

[ask] IC50 lookup needed for Nc1ccc(C(=O)O)c(O)c1 , thanks.
[reply] 12.4

[ask] IC50 lookup needed for Nc1ccc(O)c(C(=O)O)c1 , thanks.
[reply] 7.6
